Entry source: ChEMBL document CHEMBL4190404

- REPORTED_CONDITIONS: buffer, pH 10.5
- Description: Lipophilicity, chromatographic hydrophobicity index of the compound at pH 10.5 by HPLC method
RESULT_TYPE: CHI

Reference set (2 entries):
{"MOL_SMILES": "COC(=O)CC[C@H](NC(=O)c1ccc2c(c1)/C(=C/c1[nH]c(C)c(C(=O)N[C@@H](CCC(=O)OC)C(=O)OC)c1C)C(=O)N2)C(=O)OC", "RESULT_TYPE": "CHI", "VAL": 65}
{"MOL_SMILES": "COC(=O)[C@H](Cc1ccccc1)NC(=O)c1c(C)[nH]c(/C=C2\\C(=O)Nc3ccc(C(=O)N[C@@H](Cc4ccccc4)C(=O)O)cc32)c1C", "RESULT_TYPE": "CHI", "VAL": 58}

[a] COC(=O)c1ccc2c(c1)/C(=C/c1[nH]c(C)c(C(=O)N[C@@H](Cc3ccccc3)C(=O)O)c1C)C(=O)N2
[b] COC(=O)c1ccc2c(c1)/C(=C/c1[nH]c(C)c(C(=O)N[C@@H](Cc3ccccc3)C(=O)OC)c1C)C(=O)N2
a or b : whose CHI is greater? Mark your selection by writing its label.
b

* * *

- EXPERIMENT: Aqueous solubility in pH 5.5 phosphate buffer at 120 uM after 24 hrs by HPLC method
- Assay type: physicochemical
- REPORTED_CONDITIONS: phosphate buffer, pH 5.5
Listed next: entries and their corresponding solubility at 24 h, 120 µM.

Reference set (7 entries):
{"MOL_SMILES": "COC(=O)CC[C@H](NC(=O)c1ccc2c(c1)/C(=C/c1[nH]c(C)c(C(=O)N[C@@H](Cc3ccccc3)C(=O)OC)c1C)C(=O)N2)C(=O)OC", "solubility at 24 h, 120 µM": "< 1 µM"}
{"MOL_SMILES": "COC(=O)CC[C@H](NC(=O)c1c(C)[nH]c(/C=C2\\C(=O)Nc3ccc(C(=O)N[C@@H](Cc4ccccc4)C(=O)OC)cc32)c1C)C(=O)OC", "solubility at 24 h, 120 µM": "< 1 µM"}
{"MOL_SMILES": "COC(=O)[C@H](Cc1ccccc1)NC(=O)c1ccc2c(c1)/C(=C/c1[nH]c(C)c(C(=O)N[C@@H](Cc3ccccc3)C(=O)O)c1C)C(=O)N2", "solubility at 24 h, 120 µM": "30 µM"}
{"MOL_SMILES": "COC(=O)[C@H](Cc1ccccc1)NC(=O)c1ccc2c(c1)/C(=C/c1[nH]c(C)c(C(=O)O)c1C)C(=O)N2", "solubility at 24 h, 120 µM": "< 1 µM"}
{"MOL_SMILES": "COC(=O)[C@H](Cc1ccccc1)NC(=O)c1ccc2c(c1)/C(=C/c1[nH]c(C)c(C(=O)N[C@@H](Cc3ccccc3)C(=O)OC)c1C)C(=O)N2", "solubility at 24 h, 120 µM": "< 1 µM"}
{"MOL_SMILES": "COC(=O)CC[C@H](NC(=O)c1ccc2c(c1)/C(=C/c1[nH]c(C)c(C(=O)O)c1C)C(=O)N2)C(=O)OC", "solubility at 24 h, 120 µM": "< 5 µM"}
{"MOL_SMILES": "COC(=O)c1ccc2c(c1)/C(=C/c1[nH]c(C)c(C(=O)N[C@@H](Cc3ccccc3)C(=O)O)c1C)C(=O)N2", "solubility at 24 h, 120 µM": "< 5 µM"}

Pending compound:
Reported solubility at 24 h, 120 µM, compound COC(=O)CC[C@H](NC(=O)c1c(C)[nH]c(/C=C2\C(=O)Nc3ccc(C(=O)O)cc32)c1C)C(=O)OC : ____
30 µM

* * *

- EXPERIMENT: Lipophilicity, chromatographic hydrophobicity index of the compound at pH 7.4 by HPLC method
- Assay type: physicochemical
- REPORTED_CONDITIONS: buffer
RESULT_TYPE: CHI

{"MOL_SMILES": "COC(=O)CC[C@H](NC(=O)c1ccc2c(c1)/C(=C/c1[nH]c(C)c(C(=O)N[C@@H](CCC(=O)OC)C(=O)OC)c1C)C(=O)N2)C(=O)OC", "RESULT_TYPE": "CHI", "VAL": 65}
{"MOL_SMILES": "COC(=O)[C@H](Cc1ccccc1)NC(=O)c1c(C)[nH]c(/C=C2\\C(=O)Nc3ccc(C(=O)O)cc32)c1C", "RESULT_TYPE": "CHI", "VAL": 52}
{"MOL_SMILES": "COC(=O)CC[C@H](NC(=O)c1c(C)[nH]c(/C=C2\\C(=O)Nc3ccc(C(=O)N[C@@H](Cc4ccccc4)C(=O)O)cc32)c1C)C(=O)OC", "RESULT_TYPE": "CHI", "VAL": 50}
{"MOL_SMILES": "COC(=O)[C@H](Cc1ccccc1)NC(=O)c1ccc2c(c1)/C(=C/c1[nH]c(C)c(C(=O)N[C@@H](Cc3ccccc3)C(=O)O)c1C)C(=O)N2", "RESULT_TYPE": "CHI", "VAL": 59}
{"MOL_SMILES": "COC(=O)CC[C@H](NC(=O)c1ccc2c(c1)/C(=C/c1[nH]c(C)c(C(=O)N[C@@H](Cc3ccccc3)C(=O)O)c1C)C(=O)N2)C(=O)OC", "RESULT_TYPE": "CHI", "VAL": 49}

[I] COC(=O)CC[C@H](NC(=O)c1ccc2c(c1)/C(=C/c1[nH]c(C)c(C(=O)O)c1C)C(=O)N2)C(=O)OC
[II] COC(=O)[C@H](Cc1ccccc1)NC(=O)c1ccc2c(c1)/C(=C/c1[nH]c(C)c(C(=O)N[C@@H](Cc3ccccc3)C(=O)OC)c1C)C(=O)N2
[III] COC(=O)[C@H](Cc1ccccc1)NC(=O)c1c(C)[nH]c(/C=C2\C(=O)Nc3ccc(C(=O)N[C@@H](Cc4ccccc4)C(=O)O)cc32)c1C
Order the records by CHI, with each subsequent value no larger than the one before. Arrange the labels as the request states and list them.
II, III, I

* * *

Listed next: entries and their corresponding solubility at 24 h, 120 µM.
- EXPERIMENT: Aqueous solubility in pH 7.4 phosphate buffer at 120 uM after 24 hrs by HPLC method
- Type: physicochemical

Reported solubility at 24 h, 120 µM, molecule Cc1[nH]c(/C=C2\C(=O)Nc3ccc(C(=O)N[C@@H](Cc4ccccc4)C(=O)O)cc32)c(C)c1C(=O)O : ____
≥ 120 µM

Reported solubility at 24 h, 120 µM, molecule CCN(CC)CCNC(=O)c1c(C)[nH]c(/C=C2\C(=O)Nc3ccc(F)cc32)c1C : ____
≥ 120 µM

Reported solubility at 24 h, 120 µM, molecule Cc1[nH]c(/C=C2\C(=O)Nc3ccc(C(=O)O)cc32)c(C)c1C(=O)N[C@@H](Cc1ccccc1)C(=O)O : ____
≥ 120 µM

Reported solubility at 24 h, 120 µM, molecule COC(=O)CC[C@H](NC(=O)c1ccc2c(c1)/C(=C/c1[nH]c(C)c(C(=O)N[C@@H](Cc3ccccc3)C(=O)O)c1C)C(=O)N2)C(=O)OC : ____
100 µM

* * *

- EXPERIMENT: n-Octanol-buffer distribution coefficient, log D of the compound at pH 7.4 after 1 hr by shake flask method
- Type: physicochemical
RESULT_TYPE: logD at 1 h

Reference set (3 entries):
{"MOLECULE": "COC(=O)[C@H](Cc1ccccc1)NC(=O)c1c(C)[nH]c(/C=C2\\C(=O)Nc3ccc(C(=O)O)cc32)c1C", "logD at 1 h": 1.53}
{"MOLECULE": "Cc1[nH]c(/C=C2\\C(=O)Nc3ccccc32)c(C)c1CCC(=O)O [ORANTINIB]", "logD at 1 h": 1.3}
{"MOLECULE": "Cc1[nH]c(/C=C2\\C(=O)Nc3ccc(C(=O)N[C@H](Cc4ccccc4)C(=O)O)cc32)c(C)c1C(=O)N[C@@H](Cc1ccccc1)C(=O)O", "logD at 1 h": -3.18}

[1] COC(=O)c1ccc2c(c1)/C(=C/c1[nH]c(C)c(C(=O)N[C@@H](Cc3ccccc3)C(=O)O)c1C)C(=O)N2
[2] COC(=O)CC[C@H](NC(=O)c1ccc2c(c1)/C(=C/c1[nH]c(C)c(C(=O)N[C@@H](Cc3ccccc3)C(=O)O)c1C)C(=O)N2)C(=O)OC
Which of these two has the smaller recorded logD at 1 h: 1 or 2 ? Mark your selection by writing its label.
2

* * *

- System: Receptor-type tyrosine-protein kinase FLT3 (Homo sapiens), P36888 [UNDEFINED MUTATION]
- Sequence (P36888 whole entry, looked up, change not shown): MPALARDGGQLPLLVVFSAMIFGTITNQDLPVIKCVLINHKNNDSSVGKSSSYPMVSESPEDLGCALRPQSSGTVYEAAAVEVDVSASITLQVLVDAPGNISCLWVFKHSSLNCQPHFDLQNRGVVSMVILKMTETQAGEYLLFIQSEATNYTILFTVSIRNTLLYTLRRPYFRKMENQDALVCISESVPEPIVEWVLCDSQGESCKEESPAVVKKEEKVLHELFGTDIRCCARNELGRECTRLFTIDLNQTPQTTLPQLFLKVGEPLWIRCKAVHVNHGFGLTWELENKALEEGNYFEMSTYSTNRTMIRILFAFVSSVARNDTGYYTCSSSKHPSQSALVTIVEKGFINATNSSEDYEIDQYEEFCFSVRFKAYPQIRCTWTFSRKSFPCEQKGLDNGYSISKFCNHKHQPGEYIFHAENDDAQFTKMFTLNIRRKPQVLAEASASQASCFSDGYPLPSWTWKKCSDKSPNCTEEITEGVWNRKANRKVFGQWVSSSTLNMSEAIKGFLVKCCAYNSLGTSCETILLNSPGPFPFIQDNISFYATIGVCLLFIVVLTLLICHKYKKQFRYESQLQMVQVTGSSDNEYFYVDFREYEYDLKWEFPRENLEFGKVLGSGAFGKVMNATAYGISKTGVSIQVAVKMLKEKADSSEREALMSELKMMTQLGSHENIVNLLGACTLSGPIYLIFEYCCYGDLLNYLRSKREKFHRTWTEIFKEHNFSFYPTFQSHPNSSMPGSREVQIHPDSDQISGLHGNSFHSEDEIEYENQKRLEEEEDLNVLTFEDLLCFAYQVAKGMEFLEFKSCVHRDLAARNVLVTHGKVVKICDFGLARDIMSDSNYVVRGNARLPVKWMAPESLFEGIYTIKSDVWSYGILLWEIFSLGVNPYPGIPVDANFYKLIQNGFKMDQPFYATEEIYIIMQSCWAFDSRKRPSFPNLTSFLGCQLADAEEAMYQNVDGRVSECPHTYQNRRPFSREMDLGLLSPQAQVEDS
- EXPERIMENT: Inhibition of FLT3 ITD mutant (unknown origin) using TAMRA-Src- tide as substrate at 12.5 uM after 1 hr by fluorescence polarization assay relative to control
RESULT_TYPE: inhibition (%)

{"MOL_SMILES": "COC(=O)c1ccc2c(c1)/C(=C/c1[nH]c(C)c(C(=O)N[C@H](Cc3ccccc3)C(=O)OC)c1C)C(=O)N2", "OUTPUT_UNIT": "%", "inhibition": 80.6}
{"MOL_SMILES": "COC(=O)CC[C@H](NC(=O)c1c(C)[nH]c(/C=C2\\C(=O)Nc3ccc(C(=O)OC)cc32)c1C)C(=O)OC", "OUTPUT_UNIT": "%", "inhibition": 92.2}
{"MOL_SMILES": "COC(=O)CC[C@H](NC(=O)c1ccc2c(c1)/C(=C/c1[nH]c(C)c(C(=O)N[C@H](Cc3ccccc3)C(=O)OC)c1C)C(=O)N2)C(=O)OC", "OUTPUT_UNIT": "%", "inhibition": 78}
{"MOL_SMILES": "COC(=O)[C@H](Cc1ccccc1)NC(=O)c1c(C)[nH]c(/C=C2\\C(=O)Nc3ccc(C(=O)N[C@H](Cc4ccccc4)C(=O)OC)cc32)c1C", "OUTPUT_UNIT": "%", "inhibition": 70.3}
{"MOL_SMILES": "CCOC(=O)c1c(C)[nH]c(/C=C2\\C(=O)Nc3ccc(C(=O)N[C@H](Cc4ccccc4)C(=O)OC)cc32)c1C", "OUTPUT_UNIT": "%", "inhibition": 92.2}
{"MOL_SMILES": "CCOC(=O)c1c(C)[nH]c(/C=C2\\C(=O)Nc3ccc(C(=O)N[C@@H](CCC(=O)OC)C(=O)OC)cc32)c1C", "OUTPUT_UNIT": "%", "inhibition": 76.7}
